B1: Osa-1-4 twister ribozyme (parent)
chain: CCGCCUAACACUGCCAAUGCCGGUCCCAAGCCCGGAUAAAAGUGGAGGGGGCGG

# Variants of: B1
# Experimental details: self-cleavage, relative activity (ratio to wild type); higher = more cleavage; co-transcriptional
Values of self-cleavage greater than or equal to 0.07 map to yes; values below map to no.

Observe how each entry below is paired with its result.
Sequence variant: A39G U18G
Group label: yes
//
Sequence variant: A46G C31A
Group label: no
//
Sequence variant: A7G G34A
Group label: yes
//
Sequence variant: A38U G35A
Group label: yes

Determine whether measured self-cleavage meets or exceeds 0.07 for C21G G42A
no

Reported self-cleavage at or above 0.07? A17G A7C
yes

Determine whether this variant has self-cleavage no lower than 0.07: A7U G49A
no

Say whether C21U G30C shows self-cleavage of 0.07 or more.
no
